assay-system: Galectin-1 (Homo sapiens, UniProt P09382)
Sequence (P09382 whole entry): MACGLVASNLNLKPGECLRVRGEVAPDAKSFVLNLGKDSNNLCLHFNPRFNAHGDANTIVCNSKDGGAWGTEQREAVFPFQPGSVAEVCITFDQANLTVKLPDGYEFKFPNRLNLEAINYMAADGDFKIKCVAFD
experiment: Potency index, ratio of test compound IC50 to (2S,3R,4S,5R,6R)-2-(((2R,3S,4R,5R,6R)-4,5 dihydroxy-2-(hydroxymethyl)-6 methoxytetrahydro-2H-pyran-3-yl)oxy)-6(hydroxymethyl)tetrahydro-2H-pyran-3,4,5-triol IC50 for inhibition of asialofetuin binding to human recombinant Gal-1 transfected in Escherichia coli BL21 (DE3) incubated for 2 hrs by competitive solid-phase assay
measured-endpoint: Ratio IC50

INSERT INTO results (molecule, test_value) VALUES
  ('CC(=O)N[C@H]1[C@H](Oc2ccc([N+](=O)[O-])cc2)O[C@H](CO)[C@@H](O[C@@H]2O[C@H](CO)[C@H](O)[C@H](OS(=O)(=O)O)[C@H]2O)[C@@H]1O', 0.83);

(a) COc1cc(CO)ccc1O[C@@H]1O[C@H](CO)[C@@H](O[C@@H]2O[C@H](CO)[C@H](O)[C@H](O)[C@H]2O)[C@H](O)[C@H]1O
(b) CC(=O)N[C@H]1C(O)O[C@H](CO)[C@@H](O[C@@H]2O[C@H](CO)[C@H](O)[C@H](O)[C@H]2O)[C@@H]1O (stereo partly drawn)
Which entry has a larger number for Ratio IC50, a or b ? State the label of the item chosen.
a
